Tested on: chimeric Caspase-9 polypeptide
Sequence (P62942 2-108 F37V limits assumed): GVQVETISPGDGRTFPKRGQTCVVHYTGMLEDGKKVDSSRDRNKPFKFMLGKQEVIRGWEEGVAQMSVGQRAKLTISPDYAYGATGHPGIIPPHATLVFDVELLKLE
Assay: Caspase-9 mutant classes and basal activity (Table 5)
Type: cell-based
Conditions: Caspase-9 mutant class; basal (ligand-independent) signaling compared with unmodified chimeric Caspase-9
Description: Even though homo-dimerization of wild-type initiator Caspase-9 is energetically unfavorable, making them mostly monomers in solution [14-16], the low-level inherent basal activity of unprocessed Caspase-9 [15, 17] is enhanced in the presence of the Apaf-1-based “apoptosome”, its natural allosteric regulator [6]. […] In some examples, the amount of dimerizer administered may be determined as an amount designed to remove the highest amount, at least 80% or 90% of the modified cells. […]
Assay endpoint: Basal Activity

Answered examples (5):
State the recorded Basal Activity for this entry: T317C (protein) GFGDVGALESLRGNADLAYILSMEPCGHCLIINNVNFCRESGLRTRTGSNIDCEKLRRRFSSLHFMVEVKGDLTAKKMVLALLELARQDHGALDCCVVVILSHGCQASHLQFPGAVYGTDGCPVSVEKIVNIFNGTSCPSLGGKPKLFFIQACGGEQKDHGFEVASTSPEDESPGSNPEPDACPFQEGLRTFDQLDAISSLPTPSDIFVSYSTFPGFVSWRDPKSGSWYVETLDDIFEQWAHSEDLQSLLLRVANAVSVKGIYKQMPGCFNFLRKKLFFKTSASRA
Similar

State the recorded Basal Activity for this entry: S144A (protein) GFGDVGALEALRGNADLAYILSMEPCGHCLIINNVNFCRESGLRTRTGSNIDCEKLRRRFSSLHFMVEVKGDLTAKKMVLALLELARQDHGALDCCVVVILSHGCQASHLQFPGAVYGTDGCPVSVEKIVNIFNGTSCPSLGGKPKLFFIQACGGEQKDHGFEVASTSPEDESPGSNPEPDATPFQEGLRTFDQLDAISSLPTPSDIFVSYSTFPGFVSWRDPKSGSWYVETLDDIFEQWAHSEDLQSLLLRVANAVSVKGIYKQMPGCFNFLRKKLFFKTSASRA
Decreased

State the recorded Basal Activity for this entry: D327K (protein) GFGDVGALESLRGNADLAYILSMEPCGHCLIINNVNFCRESGLRTRTGSNIDCEKLRRRFSSLHFMVEVKGDLTAKKMVLALLELARQDHGALDCCVVVILSHGCQASHLQFPGAVYGTDGCPVSVEKIVNIFNGTSCPSLGGKPKLFFIQACGGEQKDHGFEVASTSPEDESPGSNPEPDATPFQEGLRTFKQLDAISSLPTPSDIFVSYSTFPGFVSWRDPKSGSWYVETLDDIFEQWAHSEDLQSLLLRVANAVSVKGIYKQMPGCFNFLRKKLFFKTSASRA
Increased

State the recorded Basal Activity for this entry: F406A (protein) GFGDVGALESLRGNADLAYILSMEPCGHCLIINNVNFCRESGLRTRTGSNIDCEKLRRRFSSLHFMVEVKGDLTAKKMVLALLELARQDHGALDCCVVVILSHGCQASHLQFPGAVYGTDGCPVSVEKIVNIFNGTSCPSLGGKPKLFFIQACGGEQKDHGFEVASTSPEDESPGSNPEPDATPFQEGLRTFDQLDAISSLPTPSDIFVSYSTFPGFVSWRDPKSGSWYVETLDDIFEQWAHSEDLQSLLLRVANAVSVKGIYKQMPGCFNALRKKLFFKTSASRA
Decreased

State the recorded Basal Activity for this entry: C403T (protein) GFGDVGALESLRGNADLAYILSMEPCGHCLIINNVNFCRESGLRTRTGSNIDCEKLRRRFSSLHFMVEVKGDLTAKKMVLALLELARQDHGALDCCVVVILSHGCQASHLQFPGAVYGTDGCPVSVEKIVNIFNGTSCPSLGGKPKLFFIQACGGEQKDHGFEVASTSPEDESPGSNPEPDATPFQEGLRTFDQLDAISSLPTPSDIFVSYSTFPGFVSWRDPKSGSWYVETLDDIFEQWAHSEDLQSLLLRVANAVSVKGIYKQMPGTFNFLRKKLFFKTSASRA
Similar

New cases:
State the recorded Basal Activity for this entry: A331K (protein) GFGDVGALESLRGNADLAYILSMEPCGHCLIINNVNFCRESGLRTRTGSNIDCEKLRRRFSSLHFMVEVKGDLTAKKMVLALLELARQDHGALDCCVVVILSHGCQASHLQFPGAVYGTDGCPVSVEKIVNIFNGTSCPSLGGKPKLFFIQACGGEQKDHGFEVASTSPEDESPGSNPEPDATPFQEGLRTFDQLDKISSLPTPSDIFVSYSTFPGFVSWRDPKSGSWYVETLDDIFEQWAHSEDLQSLLLRVANAVSVKGIYKQMPGCFNFLRKKLFFKTSASRA
Increased

State the recorded Basal Activity for this entry: N405Q-S144A (protein) GFGDVGALEALRGNADLAYILSMEPCGHCLIINNVNFCRESGLRTRTGSNIDCEKLRRRFSSLHFMVEVKGDLTAKKMVLALLELARQDHGALDCCVVVILSHGCQASHLQFPGAVYGTDGCPVSVEKIVNIFNGTSCPSLGGKPKLFFIQACGGEQKDHGFEVASTSPEDESPGSNPEPDATPFQEGLRTFDQLDAISSLPTPSDIFVSYSTFPGFVSWRDPKSGSWYVETLDDIFEQWAHSEDLQSLLLRVANAVSVKGIYKQMPGCFQFLRKKLFFKTSASRA
Decreased

State the recorded Basal Activity for this entry: S183A (protein) GFGDVGALESLRGNADLAYILSMEPCGHCLIINNVNFCRESGLRTRTGANIDCEKLRRRFSSLHFMVEVKGDLTAKKMVLALLELARQDHGALDCCVVVILSHGCQASHLQFPGAVYGTDGCPVSVEKIVNIFNGTSCPSLGGKPKLFFIQACGGEQKDHGFEVASTSPEDESPGSNPEPDATPFQEGLRTFDQLDAISSLPTPSDIFVSYSTFPGFVSWRDPKSGSWYVETLDDIFEQWAHSEDLQSLLLRVANAVSVKGIYKQMPGCFNFLRKKLFFKTSASRA
Decreased
